# System tested: PSA (Homo sapiens, UniProt P07288)
# Sequence (P07288 25-261): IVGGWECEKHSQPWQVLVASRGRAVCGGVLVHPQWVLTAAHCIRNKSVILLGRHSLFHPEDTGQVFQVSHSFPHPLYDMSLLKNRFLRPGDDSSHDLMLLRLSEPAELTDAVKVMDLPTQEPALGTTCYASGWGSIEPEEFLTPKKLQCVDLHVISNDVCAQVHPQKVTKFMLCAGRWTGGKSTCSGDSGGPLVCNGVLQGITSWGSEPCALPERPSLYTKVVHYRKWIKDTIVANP
# Protocol notes: Surface plasmon resonance, GST-peptides on PSA captured by MAb H117
# Type: binding
# Parameters: PSA was purified from human seminal fluid as described previously (3); from tissue; host or cells: human seminal fluid
# Assay context: zinc 30 μM, single fit, 3.4 μM peptide
Readout type: pKd
In textbook form, pKd equals minus log to base ten of the concentration in mol/L.

Look up pKd: CVFTSDYAFC [Peptide A-1]
6.00

---

# System tested: PSA (Homo sapiens)
# Protocol notes: Surface plasmon resonance, GST-peptides on PSA captured by MAb H117
# Assay type: binding
# Parameters: PSA was purified from human seminal fluid as described previously (3); from tissue; host or cells: human seminal fluid
# Assay context: zinc 0 μM, average of 3 fits, analyte 3.4-8.5 μM
Readout type: Kd (µM)
Please reply with the bare figure in µM and do not write the unit itself.

Look up Kd: CVFTSDYAFC [Peptide A-1]
7.8

src = patent US7414023B2
